Assignment: determine reported melting point for the given compounds.

-- ask Value lookup for melting point; key = Cn1c(=O)cc(Cl)n(Cc2cn(Cc3nc(C4=Cc5ccccc5OC4)no3)nn2)c1=O
-- reply 125 to 128 °C

-- ask I am curious: what melting point value has been reported for Cn1c(=O)cc(Cl)n(Cc2cn(-c3ccc([N+](=O)[O-])cc3)nn2)c1=O ?
-- reply 110 to 112 °C

-- ask Find the recorded melting point belonging to Cn1c(=O)cc(Cl)n(Cc2cn(-c3ccc(F)cc3)nn2)c1=O and report it.
-- reply 97 °C

-- ask Report melting point for Cn1c(=O)cc(Cl)n(Cc2cn(Cc3ccccc3)nn2)c1=O please.
-- reply 115 to 118 °C

-- ask Name the recorded melting point for Cn1c(=O)cc(Cl)n(Cc2cn(CCCN3C(=O)c4cccc5cccc(c45)C3=O)nn2)c1=O .
-- reply 96 to 98 °C

-- ask Would you mind telling me what melting point value was observed for Cn1c(=O)cc(Cl)n(Cc2cn(Cc3cccc(Oc4ccccc4)c3)nn2)c1=O ?
-- reply 101 to 105 °C

-- ask melting point for Cn1c(=O)cc(Cl)n(Cc2cn(CCCCn3cc(Cn4c(Cl)cc(=O)n(C)c4=O)nn3)nn2)c1=O ?
-- reply 115 to 118 °C

###

Assign melting point to each entry below.

-- ask What measured melting point goes with Cc1cc(=O)oc2cc(OCCCCn3cc(Cn4c(Cl)cc(=O)n(C)c4=O)nn3)ccc12 ?
-- reply 145 to 148 °C

-- ask Return reported melting point; argument: COc1ccc(-n2cc(Cn3c(Cl)cc(=O)n(C)c3=O)nn2)cc1
-- reply 145 to 148 °C

-- ask Fill blank: measured melting point of the molecule COc1cccc2c1OCC(c1noc(Cn3cc(Cn4c(Cl)cc(=O)n(C)c4=O)nn3)n1)=C2 is ____.
-- reply 122 to 125 °C

-- ask Endpoint output: melting point of Cn1c(=O)cc(Cl)n(Cc2cn(CCCCCn3cc(Cn4c(Cl)cc(=O)n(C)c4=O)nn3)nn2)c1=O . Value?
-- reply 114 to 115 °C

###

Kindly state melting point for each of the entries shown.

-- ask Which measured melting point value corresponds to COc1cccc(Cn2cc(Cn3c(Cl)cc(=O)n(C)c3=O)nn2)c1 ?
-- reply 98 to 100 °C

-- ask // melting point lookup, key: Cn1c(=O)cc(Cl)n(Cc2cn(-c3ccc(Cl)cc3)nn2)c1=O
-- reply 100 °C

-- ask What measured melting point goes with Cn1c(=O)cc(Cl)n(Cc2cn(Cc3ccc(Br)cc3)nn2)c1=O ?
-- reply 138 to 140 °C

-- ask Need melting point, item CCCCCCn1cc(Cn2c(Cl)cc(=O)n(C)c2=O)nn1
-- reply 100 to 102 °C

-- ask Recorded melting point for Cn1c(=O)cc(Cl)n(Cc2cn(-c3ccccc3)nn2)c1=O , please?
-- reply 120 to 121 °C
